From: PubChem BioAssay

Below, each entry is listed with its recorded composite z-score.
# Test system: Inhibin beta A chain (activin A)
# MEASUREMENT_PROTOCOL: small molecules binding activin A – biochemical, small-molecule microarray, 635 nm fluorescence scan, primary screen (AID 1107);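 further: mouse activin A protein probed at 4.33 µg/mL on printed slides; score merges bound-protein fluorescence near 667 nm with spot signal-to-noise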
# TEST_CONDITIONS: INHBA, higher = more signal

COMPOUND | composite z-score
O=C(O)[C@@]1(CCS(=O)(=O)c2ccccc2)N=C(c2ccc(OCCCO)cc2)O[C@H]1c1ccccc1 | 0.658
[N-]=[N+]=Nc1ccccc1C[C@@]1(C(=O)N2CCCCC2)N=C(c2ccc(OCCCO)cc2)O[C@@H]1c1ccccc1N=[N+]=[N-] | 1.59
O=C1C2C=CC(C(O)c3c(F)cccc3Cl)N(Nc3ccccc3F)C2C(=O)N1c1ccccc1 (configuration not stated) | 0.87
COC(=O)[C@]1(CCC(=O)OC(C)(C)C)N=C(c2ccc(OCCCO)cc2)O[C@@H]1c1ccccc1 | -0.0102
COC(=O)C(CC#Cc1ccc2c(c1)[C@]1(C(=O)N2)[C@H](c2ccccc2OCCO)N2[C@H](c3ccccc3)[C@H](c3ccccc3)OC(=O)[C@H]2[C@@H]1C(=O)O)C(=O)OC | 1.04
CC(C)[Si](C#C[Si](C(C)C)(C(C)C)C(C)C)(O[C@H](C)c1cn(Cc2ccccc2)nn1)C(C)C | -0.353
CC(C)CN1C(=O)[C@@]2(c3ccc([N+](=O)[O-])cc3)CC(=O)N(C3CCCCC3)[C@@H]2c2ccc(CO)cc21 | 0.294
CCCCCCc1nc(-c2ccc(-c3ccc(Cl)c(Cl)c3)o2)c(C)c2c1[Si](C(C)C)(C(C)C)OC2 | 0.375
COc1ccc([C@H]2C[C@H]3C(I)=C[C@@H]2C(=O)[C@]32CO2)cc1 | 0.508
COCC(=C=CC[C@H](O)c1ccccc1OCCO)CCO | 0.564
CC[C@@H]1C=C(C(=O)O)[C@H](c2ccc(C)cc2)N1S(=O)(=O)c1ccc(C)cc1 | 0.236
O=C1C2C=CC(C(O)COCc3ccccc3)N(Nc3ccc([N+](=O)[O-])cc3)C2C(=O)N1c1ccccc1 (configuration not stated) | 0.976
C=C(/C(=C/C[C@H](OC(=O)c1ccncc1)c1ccc(OCCO)cc1)c1cc(C(=O)OC)ccc1OC)C(C)C | 1.13
O=C1NC(=O)C2C1C=CC(C(O)C1CC=CCC1)N2Nc1ccccn1 (configuration not stated) | 1.75
CCCCN1CC=CC23O[C@@H]4C=CCOC(=O)[C@@H]4[C@H]2C(=O)N(CCCCCCO)[C@@H]3C1=O (some centres not stated) | 0.65
CCN(CC)c1ccc(N2CC=CC34O[C@@H]5C=CCOC(=O)[C@@H]5[C@H]3C(=O)N(CCCCCCO)[C@@H]4C2=O)cc1 (some centres not stated) | 1.17
C#CCOc1ccc(C[C@@H](C(=O)OC)N(CC#C)[C@@H](/C=C/C2CC2)[C@H](O)Cc2ccccc2)cc1 | 0.899
